# credit: PubChem BioAssay (NCATS)

# Experimental Details: Primary fluorescence-based thiol-reactive (MSTI) qHTS assay for identification of artifact compounds. (AID 1845221); note: nearly all actives have a fitted effect of over 65% in size
# Measurement Context: MSTI thiol-reactivity probe, 1 h; series mostly up to 53.8 µM
Records with an inconclusive call do not appear. Active and inactive are the calls of the source. Calls come from the whole dose curve; as a rule, active = well fitted inhibition curve with a large enough effect; inconclusive = small, poorly fitted or top-dose-only effect; inactive = no such curve, though single readings can be large or run the other way.
Outcome codes: yes = active, no = inactive

INSERT INTO measurements (molecule, qualitative_label) VALUES
  ('COc1cccc(OC)c1C(=O)N[C@@H]1C(=O)N2[C@@H]1SC(C)(C)[C@@H]2C(=O)O', 'no'),
  ('Cc1ccc(C(=O)C(C)CN2CCCCC2)cc1 (centres undefined)', 'no'),
  ('CC(=O)OCC(=O)[C@@]1(O)CC[C@H]2[C@@H]3CCC4=CC(=O)C=C[C@]4(C)[C@H]3[C@@H](O)C[C@@]21C', 'no'),
  ('C#C[C@]1(OC(C)=O)CC[C@H]2[C@@H]3CCC4=C[C@@H](OC(C)=O)CC[C@@H]4[C@H]3CC[C@@]21C', 'no'),
  ('COc1ccc(CN2CCN(C(c3ccc(F)cc3)c3ccc(F)cc3)CC2)c(OC)c1OC', 'no'),
  ('Cc1onc(-c2c(Cl)cccc2Cl)c1C(=O)N[C@@H]1C(=O)N2[C@@H]1SC(C)(C)[C@@H]2C(=O)O', 'no'),
  ('O=C(OCCOCCO)c1ccccc1Nc1cccc(C(F)(F)F)c1', 'no'),
  ('CC(CCc1ccccc1)NCC(O)c1ccc(O)c(C(N)=O)c1 (centres undefined)', 'no'),
  ('NC(=NCCCCCCN=C(N)/N=C(\N)Nc1ccc(Cl)cc1)/N=C(\N)Nc1ccc(Cl)cc1', 'no'),
  ('CC(C)(C)CC(C)(C)c1ccc(OCCOCC[N+](C)(C)Cc2ccccc2)cc1', 'no'),
  ('CC(C)n1nc(-c2cc3cc(O)ccc3[nH]2)c2c(N)ncnc21', 'yes'),
  ('CN1C(CCl)Nc2cc(Cl)c(S(N)(=O)=O)cc2S1(=O)=O (centres undefined)', 'no'),
  ('CN1[C@@H]2CC[C@H]1CC(OC(=O)c1c[nH]c3ccccc13)C2 (some centres undefined)', 'no'),
  ('O=c1[nH]c(=O)n([C@H]2CCCO2)cc1F', 'no'),
  ('COC(=O)C1=C(C)NC(C)=C(C(=O)O[C@@H]2CCCN(Cc3ccccc3)C2)[C@@H]1c1cccc([N+](=O)[O-])c1', 'no'),
  ('CCCCS(=O)(=O)N[C@@H](Cc1ccc(OCCCCC2CCNCC2)cc1)C(=O)O', 'no'),
  ('CC(=O)O[C@]1(C(C)=O)CC[C@H]2[C@@H]3C[C@H](C)C4=CC(=O)CC[C@]4(C)[C@H]3CC[C@@]21C', 'no'),
  ('Cc1ccccc1C(=O)Nc1ccc(C(=O)N2CCCC(N(C)C)c3ccccc32)cc1 (centres undefined)', 'no'),
  ('COC(=O)CCc1ccc(OCC(O)CNC(C)C)cc1 (centres undefined)', 'no');

* * *

# Experimental Details: S16 Schwann cell PMP22 intronic element firefly luciferase assay (AID 624032); note: nearly all actives have a fitted effect of over 30% in size; note: potency is the fitted concentration of half-maximal effect
# Measurement Context: S16 rat Schwann cells, PMP22 element FLuc, 24 h; series mostly up to 57.5 µM
Records with an inconclusive call do not appear. Calls of active or inactive are those of the source. The call rests on the fitted dose curve; in most records, active means well fitted inhibition curve with a large enough effect; inconclusive means small, poorly fitted or top-dose-only effect; inactive means no such curve, though single readings can be large or run the other way.
Experimental Endpoint: Potency

INSERT INTO measurements (smiles_code, experimental_endpoint, observed_result) VALUES
  ('C[C@H]1C[C@H]2[C@@H]3CCC4=CC(=O)C=C[C@]4(C)[C@@]3(Cl)[C@@H](O)C[C@]2(C)[C@@]1(O)C(=O)CO', 'Potency', 'inactive'),
  ('CC(C)(C(=O)c1cccnc1)c1cccnc1', 'Potency', 'inactive'),
  ('Cc1cc(O)c(C(C)C)cc1Cl', 'Potency', 'inactive'),
  ('O=C(O)CCCCC(=O)O', 'Potency', 'inactive'),
  ('Cc1ncc(CSSCc2cnc(C)c(O)c2CO)c(CO)c1O', 'Potency', 'inactive'),
  ('CCCOC(C(=O)OC1CCN(C)CC1)(c1ccccc1)c1ccccc1', 'Potency', 'inactive'),
  ('COc1c(C)c2c(c(O)c1C/C=C(\C)CCC(=O)O)C(=O)OC2', 'Potency', '0.976 µM (active)'),
  ('Cc1c(C)n(CCN(C)C)c2ccc(C(=O)OCCN(C)C)cc12', 'Potency', '32.2 µM (active)'),
  ('C1CCc2nnnn2CC1', 'Potency', 'inactive'),
  ('CC(C)(C)CC(C)(C)c1ccc(O)c(Cc2ccc(Cl)cc2Cl)c1', 'Potency', '36.1 µM (active)'),
  ('C[C@@H](CN(C)C)CN1c2ccccc2Sc2ccccc21', 'Potency', 'inactive'),
  ('CCCCCCCCCCCCCCCCOP(=O)([O-])OCC[N+](C)(C)C', 'Potency', 'inactive');
